# measurement-notes: Pharmacokinetics in ICR mice
# Assay type: in vivo
# test-settings: mouse, serum, iv, 5 mg/kg
measurement-kind: clearance (mL/min/kg)

COc1cc2ncnc(Oc3ccc(NC(=O)c4c5n(n(-c6cccc(F)c6)c4=O)CCCC5)cc3F)c2cc1OC [Compound 18]; 2.05

1: COc1cc2ncnc(Oc3ccc(NC(=O)c4c5n(n(-c6cc(F)ccc6F)c4=O)CCCC5)cc3F)c2cc1OC [Compound 24]
2: COc1cc2nccc(Oc3ccc(NC(=O)c4c5n(n(-c6ccc(F)cc6)c4=O)CCCC5)cc3)c2cc1OC [Compound 59]
From the recorded data, which exceeds the other in clearance: 1 or 2 ? Your choice should be expressed through its label. 2
(2: 3.86 mL/min/kg, 1: 1.7 mL/min/kg)

====

Target chain: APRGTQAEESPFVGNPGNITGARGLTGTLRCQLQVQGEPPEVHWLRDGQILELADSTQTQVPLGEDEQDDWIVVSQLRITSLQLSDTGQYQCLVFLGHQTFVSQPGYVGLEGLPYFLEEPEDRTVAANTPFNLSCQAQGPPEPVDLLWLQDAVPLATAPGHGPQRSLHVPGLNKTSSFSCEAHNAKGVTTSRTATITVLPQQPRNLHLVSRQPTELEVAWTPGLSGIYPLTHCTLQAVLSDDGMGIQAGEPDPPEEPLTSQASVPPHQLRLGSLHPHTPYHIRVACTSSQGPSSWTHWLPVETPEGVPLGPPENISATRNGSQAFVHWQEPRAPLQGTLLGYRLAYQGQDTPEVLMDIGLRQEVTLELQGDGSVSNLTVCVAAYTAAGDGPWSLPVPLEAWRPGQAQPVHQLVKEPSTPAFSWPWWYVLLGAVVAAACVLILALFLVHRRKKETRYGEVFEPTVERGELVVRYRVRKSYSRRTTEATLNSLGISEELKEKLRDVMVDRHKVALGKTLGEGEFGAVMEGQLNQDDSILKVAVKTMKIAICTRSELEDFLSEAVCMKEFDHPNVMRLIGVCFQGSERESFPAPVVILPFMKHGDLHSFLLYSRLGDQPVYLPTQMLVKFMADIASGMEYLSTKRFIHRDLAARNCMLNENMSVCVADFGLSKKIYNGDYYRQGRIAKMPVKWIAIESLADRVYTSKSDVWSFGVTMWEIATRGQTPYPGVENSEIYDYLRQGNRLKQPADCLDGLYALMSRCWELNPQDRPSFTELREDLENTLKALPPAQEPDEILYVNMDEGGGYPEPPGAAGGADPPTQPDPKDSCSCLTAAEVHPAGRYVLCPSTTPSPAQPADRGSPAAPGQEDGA
pIC50: −log10 of the molar value.
measurement-kind: pIC50

COc1cc2ncnc(Oc3ccc(NC(=O)c4c5n(n(-c6cc(F)ccc6F)c4=O)CCCC5)cc3Cl)c2cc1OC; 8.18

P: COc1cc2ncnc(Oc3ccc(NC(=O)c4c5n(n(-c6ccccc6Cl)c4=O)CCCC5)cc3F)c2cc1OC
Q: COc1cc2ncnc(Oc3ccc(NC(=O)c4c5n(n(-c6ccc(Cl)cc6)c4=O)CCCC5)cc3F)c2cc1OC
R: COc1cc2ncnc(Oc3ccc(NC(=O)c4c5n(n(-c6ccccc6)c4=O)CCCC5)cc3Cl)c2cc1OC
Hello, I need these entries ordered by pIC50, highest reading first. Thanks! Put the labels in the requested order and list them out. P, R, Q
(P: 7.98, R: 7.77, Q: 7.37)

====

# measurement-notes: Pharmacokinetics in ICR mice
# Type: in vivo
# test-settings: mouse, serum, iv, 5 mg/kg
measurement-kind: AUC(0-inf) (µg·h/mL)

COc1cc2ncnc(Oc3ccc(NC(=O)c4c5n(n(-c6cccc(F)c6)c4=O)CCCC5)cc3F)c2cc1OC; 42.1

A: COc1cc2nccc(Oc3ccc(NC(=O)c4c5n(n(-c6ccc(F)cc6)c4=O)CCCC5)cc3)c2cc1OC
B: COc1cc2ncnc(Oc3ccc(NC(=O)c4c5n(n(-c6cc(F)ccc6F)c4=O)CCCC5)cc3F)c2cc1OC
Parameter metric = AUC(0-inf). Return the lower-valued option from A and B . Your choice should be expressed through its label. A

====

# measurement-notes: Pharmacokinetics in ICR mice
# Assay type: in vivo
# test-settings: mouse, serum, po, 10 mg/kg
measurement-kind: Tmax (h)

COc1cc2ncnc(Oc3ccc(NC(=O)c4c5n(n(-c6cc(F)ccc6F)c4=O)CCCC5)cc3F)c2cc1OC; 2

1: COc1cc2nccc(Oc3ccc(NC(=O)c4c5n(n(-c6ccc(F)cc6)c4=O)CCCC5)cc3)c2cc1OC
2: COc1cc2ncnc(Oc3ccc(NC(=O)c4c5n(n(-c6cccc(F)c6)c4=O)CCCC5)cc3F)c2cc1OC
From the recorded data, which exceeds the other in Tmax: 1 or 2 ? Your choice should be expressed through its label. 2

====

Protein target, amino acids: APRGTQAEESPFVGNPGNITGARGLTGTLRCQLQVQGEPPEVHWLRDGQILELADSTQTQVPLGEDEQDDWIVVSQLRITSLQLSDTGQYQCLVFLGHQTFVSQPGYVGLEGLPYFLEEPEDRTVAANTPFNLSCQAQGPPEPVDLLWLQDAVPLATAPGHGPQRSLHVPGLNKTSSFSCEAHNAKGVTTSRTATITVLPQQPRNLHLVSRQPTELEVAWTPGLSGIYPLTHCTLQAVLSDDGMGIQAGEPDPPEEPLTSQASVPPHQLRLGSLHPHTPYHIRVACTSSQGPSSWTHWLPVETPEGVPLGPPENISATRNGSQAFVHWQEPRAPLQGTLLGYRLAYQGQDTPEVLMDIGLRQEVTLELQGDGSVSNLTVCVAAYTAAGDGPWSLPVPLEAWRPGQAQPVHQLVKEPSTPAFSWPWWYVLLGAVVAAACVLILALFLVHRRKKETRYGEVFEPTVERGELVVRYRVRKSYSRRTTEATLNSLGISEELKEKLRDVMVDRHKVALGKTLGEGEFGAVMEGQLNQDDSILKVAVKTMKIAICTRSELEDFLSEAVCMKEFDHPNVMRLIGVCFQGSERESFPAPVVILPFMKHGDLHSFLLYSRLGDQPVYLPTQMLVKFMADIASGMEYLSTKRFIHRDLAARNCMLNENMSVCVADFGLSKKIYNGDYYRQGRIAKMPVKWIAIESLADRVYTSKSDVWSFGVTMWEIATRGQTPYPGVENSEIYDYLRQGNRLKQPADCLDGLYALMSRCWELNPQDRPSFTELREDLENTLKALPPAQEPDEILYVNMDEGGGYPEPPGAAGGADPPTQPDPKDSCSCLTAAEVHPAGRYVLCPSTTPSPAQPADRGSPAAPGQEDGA
measurement-kind: IC50 (nM)

Consider the reported IC50 for these molecules:
COc1cc2ncnc(Oc3ccc(NC(=O)c4c5n(n(-c6cc(F)ccc6F)c4=O)CCCC5)c(F)c3)c2cc1OC; 37
COc1cc2ncnc(Oc3ccc(NC(=O)c4c5n(n(-c6ccccc6F)c4=O)CCCC5)c(F)c3)c2cc1OC; 13.4
COc1cc2ncnc(Oc3ccc(NC(=O)c4c5n(n(-c6ccccc6)c4=O)CCCC5)c(F)c3)c2cc1OC; 10

a: COc1cc2ncnc(Oc3ccc(NC(=O)c4c5n(n(-c6ccc(F)cc6F)c4=O)CCCC5)cc3F)c2cc1OC
b: COc1cc2ncnc(Oc3ccc(NC(=O)c4c5n(n(-c6ccccc6C)c4=O)CCCC5)cc3F)c2cc1OC
Parameter metric = IC50. Return the lower-valued option from a and b . Your choice should be expressed through its label. b
(b: 15.7 nM, a: 25.1 nM)

A: COc1cc2ncnc(Oc3ccc(NC(=O)c4c5n(n(-c6ccccc6F)c4=O)CCCC5)cc3Cl)c2cc1OC
B: COc1cc2ncnc(Oc3ccc(NC(=O)c4c5n(n(-c6cc(C)ccc6C)c4=O)CCCC5)cc3F)c2cc1OC
Parameter metric = IC50. Return the lower-valued option from A and B . Your choice should be expressed through its label. A
(A: 30.9 nM, B: 78.4 nM)

====

# System: EBC-1 cells
# measurement-notes: EBC-1 cell viability
# Type: cell-based
# test-settings: Homo sapiens, EBC-1, 72 h, read-out: IC50 viability of EBC-1 cells
measurement-kind: pIC50
As a rule, pIC50 stands for the negative log10 of the concentration, concentration in M.

Supply recorded pIC50 for COc1cc2nccc(Oc3ccc(NC(=O)c4c5n(n(-c6ccc(F)cc6)c4=O)CCCC5)cc3)c2cc1OC here. 6.27

====

# system-under-test: c-Met kinase (Homo sapiens, UniProt P08581)
# Sequence (P08581 25-1390): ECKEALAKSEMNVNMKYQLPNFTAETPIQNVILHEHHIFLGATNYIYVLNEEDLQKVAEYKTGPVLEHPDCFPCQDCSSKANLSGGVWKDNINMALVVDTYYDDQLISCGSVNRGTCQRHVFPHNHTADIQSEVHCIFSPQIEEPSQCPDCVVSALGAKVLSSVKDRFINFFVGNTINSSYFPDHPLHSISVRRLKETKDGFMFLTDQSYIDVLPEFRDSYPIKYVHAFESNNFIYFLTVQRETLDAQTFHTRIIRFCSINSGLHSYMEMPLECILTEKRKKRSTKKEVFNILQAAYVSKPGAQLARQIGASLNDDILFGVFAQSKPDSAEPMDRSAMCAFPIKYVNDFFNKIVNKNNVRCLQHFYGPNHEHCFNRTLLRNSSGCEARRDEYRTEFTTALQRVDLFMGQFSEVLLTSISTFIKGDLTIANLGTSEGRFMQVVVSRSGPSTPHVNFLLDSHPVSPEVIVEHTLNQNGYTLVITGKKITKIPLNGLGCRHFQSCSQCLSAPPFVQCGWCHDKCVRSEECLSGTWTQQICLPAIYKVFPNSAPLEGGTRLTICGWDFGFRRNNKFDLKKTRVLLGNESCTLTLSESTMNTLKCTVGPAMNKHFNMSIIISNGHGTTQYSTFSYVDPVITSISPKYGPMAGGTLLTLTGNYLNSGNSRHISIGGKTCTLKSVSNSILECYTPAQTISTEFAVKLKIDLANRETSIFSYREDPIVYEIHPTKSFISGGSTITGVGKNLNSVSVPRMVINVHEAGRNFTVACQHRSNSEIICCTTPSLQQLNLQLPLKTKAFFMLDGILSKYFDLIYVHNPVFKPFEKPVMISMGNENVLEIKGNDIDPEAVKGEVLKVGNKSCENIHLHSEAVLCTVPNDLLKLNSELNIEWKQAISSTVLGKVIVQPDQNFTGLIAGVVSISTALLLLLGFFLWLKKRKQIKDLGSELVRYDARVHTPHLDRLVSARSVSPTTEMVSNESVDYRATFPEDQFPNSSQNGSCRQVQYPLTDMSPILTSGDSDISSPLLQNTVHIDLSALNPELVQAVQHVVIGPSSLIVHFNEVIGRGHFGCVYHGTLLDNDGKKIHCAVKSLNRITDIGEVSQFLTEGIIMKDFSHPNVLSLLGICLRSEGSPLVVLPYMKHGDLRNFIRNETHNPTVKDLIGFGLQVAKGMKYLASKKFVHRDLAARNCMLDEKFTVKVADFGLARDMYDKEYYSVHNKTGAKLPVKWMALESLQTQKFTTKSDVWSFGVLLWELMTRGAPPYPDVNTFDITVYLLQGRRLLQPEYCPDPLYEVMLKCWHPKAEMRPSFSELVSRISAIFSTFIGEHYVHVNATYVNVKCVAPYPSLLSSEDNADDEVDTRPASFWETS
measurement-kind: pIC50
As a rule, pIC50 stands for the negative log10 of the concentration, concentration in M.

Answer with pIC50 of COc1cc2nccc(Oc3ccc(NC(=O)c4c5n(n(-c6ccc(F)cc6)c4=O)CCCC5)cc3)c2cc1OC measured for c-Met kinase (Homo sapiens, UniProt P08581). 7.76
